Assay System: DNA-PK phosphorylation at Serine 2056 (Homo sapiens)
Construct: FaDu cells were purchased from ATCC; host or cells: FaDu
Experimental Protocol: Cellular Assay for Inhibition of DNA-PK Phosphorylation at Serine 2056 in FaDu cells (sandwich ELISA, neocarzinostatin)
Type: cell-based
Particulars: pSer2056 DNA-PK, Table 3
Assign IC50 to each entry below.

Reference set (5 entries):
{"columns": ["Compound", "Assay System", "IC50"],
 "data": [
  ["CN(C)CCOc1cnc(N[C@H]2CC[C@@H](Oc3nc(N4CCOCC4)cc4ncc(NS(C)(=O)=O)cc34)CC2)nc1 [LFA2024]", "DNA-PK phosphorylation at Serine 2056 (Homo sapiens)", "0.1 to 1 µM"],
  ["Cc1cc(C)nc(N[C@H]2CC[C@@H](Oc3nc(N4CCOCC4)cc4ncc(OC(C)c5cnc([N+](=O)[O-])n5C)cc34)CC2)n1 (some centres unmarked) [LFA2082]", "DNA-PK phosphorylation at Serine 2056 (Homo sapiens)", "10 to 30 µM"],
  ["CC(c1cnc([N+](=O)[O-])n1C)N(c1cnc2cc(N3CCOCC3)nc(OC3CCC(Nc4ncc(N5CCN(CC(F)(F)F)CC5)cn4)CC3)c2c1)S(C)(=O)=O (centres unmarked) [LFA2046]", "DNA-PK phosphorylation at Serine 2056 (Homo sapiens)", "10 to 30 µM"],
  ["CS(=O)(=O)Nc1cnc2cc(N3CCOCC3)nc(O[C@H]3CC[C@@H](Nc4ccc5c(n4)CCNC5)CC3)c2c1 [LFA2003]", "DNA-PK phosphorylation at Serine 2056 (Homo sapiens)", "0.1 to 1 µM"],
  ["CS(=O)(=O)Nc1cnc2cc(N3CCOCC3)nc(O[C@H]3CC[C@@H](Nc4ncc(OCCN)cn4)CC3)c2c1 [LFA2027]", "DNA-PK phosphorylation at Serine 2056 (Homo sapiens)", "< 0.1 µM"]
]}

Batch request: IC50 for each of the following compounds.
1. Cc1cc(C)nc(N[C@H]2CC[C@@H](Oc3nc(N4CCOCC4)cc4ncc(N(Cc5cnc([N+](=O)[O-])n5C)S(C)(=O)=O)cc34)CC2)n1 [LFA2098]
2. Cn1c(CN(c2cnc3cc(N4CCOCC4)nc(OC4CCC(Nc5ncc(N6CCN(CCF)CC6)cn5)CC4)c3c2)S(C)(=O)=O)cnc1[N+](=O)[O-] (centres unmarked) [LFA2044]
3. CC(c1cnn(C)c1[N+](=O)[O-])N(c1cnc2cc(N3CCOCC3)nc(O[C@H]3CC[C@@H](Nc4ncc(C#N)cn4)CC3)c2c1)S(C)(=O)=O (some centres unmarked) [LFA2052]
4. Cn1c(CN(c2cnc3cc(N4CCOCC4)nc(O[C@H]4CC[C@@H](Nc5cncc(C(F)(F)F)n5)CC4)c3c2)S(C)(=O)=O)cnc1[N+](=O)[O-] [LFA2101]
5. CC(c1cnc([N+](=O)[O-])n1C)N(c1cnc2cc(N3CCOCC3)nc(O[C@H]3CC[C@@H](Nc4ncc(CCN5CCOCC5)cn4)CC3)c2c1)S(C)(=O)=O (some centres unmarked) [LFA2074]

1: 0.1 to 1 µM; 2: 1 to 10 µM; 3: 1 to 10 µM; 4: 10 to 30 µM; 5: 1 to 10 µM

Batch request: IC50 for each of the following compounds.
1. CN1CCN(CCOc2cnc(N[C@H]3CC[C@@H](Oc4nc(N5CCOCC5)cc5ncc(O)cc45)CC3)nc2)CC1 [LFA2034]
2. Cn1c(COc2cnc3cc(N4CCOCC4)nc(O[C@H]4CC[C@@H](Nc5nccnc5C#N)CC4)c3c2)cnc1[N+](=O)[O-] [LFA2095]

< 0.1 µM
10 to 30 µM

Batch request: IC50 for each of the following compounds.
1. CN1CCN(c2ccc(N[C@H]3CC[C@@H](Oc4nc(N5CCOCC5)cc5ncc(NS(C)(=O)=O)cc45)CC3)nc2)CC1 [LFA2001]
2. CS(=O)(=O)Nc1cnc2cc(N3CCOCC3)nc(O[C@H]3CC[C@@H](Nc4ncc(C5=CCNCC5)cn4)CC3)c2c1 [LFA2021]

< 0.1 µM
0.1 to 1 µM
